targetOfAssay: HLA-A*30:02
experimentalDetails: IEDB peptide-MHC binding, purified MHC/competitive/radioactivity; filed as Kd, often an IC50 or EC50 that approximates it; bounds were set here for any values at or beyond the usual limits of such assays
measurementSetup: source organism: Mammarenavirus whitewaterense
pKd: −log10 of the molar value.
endpointName: pKd

Exercise: Write pKd of YVNHTGFNV ; system used: HLA-A*30:02
Solution: ≤ 4.11

---

For each of the sequences below, state its Kd.
targetOfAssay: HLA-A*68:02
experimentalDetails: IEDB peptide-MHC binding, purified MHC/competitive/radioactivity; filed as Kd, often an IC50 or EC50 that approximates it; bounds were set here for any values at or beyond the usual limits of such assays
measurementSetup: source organism: Dengue virus 1 Brazil/97-11/1997
Dear colleague, please return just the value in nM, with no unit written.

Exercise: Specify measured Kd for WTLYAVATTV .
Solution: 1.57

Exercise: Specify measured Kd for TTSGTYVSA .
Solution: 24

Exercise: Specify measured Kd for MATYGWNLV .
Solution: 20.1
